Tested on: MDA-MB-231
Assay: Antiproliferative activity against human MDA-MB-231 cells assessed as reduction in cell viability at 100 uM after 72 hrs under hypoxic condition by MTT assay
Format: functional
The source made the active and inactive calls. No cut-off for these calls is given here.
measurement-kind: Activity

{"molecule": "NS(=O)(=O)c1ccc(NC2CCN(c3nccs3)C2=O)cc1 (stereo unspecified)", "measurement-kind": "Activity", "result": "inactive"}
{"molecule": "CCOC(=O)C(C(=O)Nc1cccc(S(N)(=O)=O)c1)C(C)C (stereo unspecified)", "measurement-kind": "Activity", "result": "inactive"}
{"molecule": "CCOC(=O)C(Nc1ccc(S(N)(=O)=O)cc1)C(=O)OCC", "measurement-kind": "Activity", "result": "inactive"}
{"molecule": "CCOC(=O)C(Nc1ccc(S(N)(=O)=O)cc1)C(=O)c1ccccc1 (stereo unspecified)", "measurement-kind": "Activity", "result": "inactive"}
{"molecule": "CC(C)C(C(=O)Nc1cccc(S(N)(=O)=O)c1)C(=O)c1ccccc1 (stereo unspecified)", "measurement-kind": "Activity", "result": "inactive"}

Request: Please look at this molecule and report its Activity: "Cc1ccc(C(=O)CNc2ccc(S(N)(=O)=O)cc2)cc1"
Result: inactive

Request: Please look at this molecule and report its Activity: "COc1ccc(C(=O)CNc2ccc(S(N)(=O)=O)cc2)cc1"
Result: inactive

Request: Please look at this molecule and report its Activity: "COc1ccc(C(=O)CNc2cccc(S(N)(=O)=O)c2)cc1"
Result: inactive

Request: Please look at this molecule and report its Activity: NS(=O)(=O)c1ccc(NC2CCN(c3ccccc3)C2=O)cc1 (stereo unspecified)
Result: inactive

Request: Please look at this molecule and report its Activity: COC(=O)C(Nc1cccc(S(N)(=O)=O)c1)C(=O)c1ccc(OC)cc1 (stereo unspecified)
Result: inactive

Request: Please look at this molecule and report its Activity: CCOC(=O)C(Nc1ccc(S(N)(=O)=O)cc1)c1ccc(OC)c(OC)c1 (stereo unspecified)
Result: inactive

----------
Tested on: MCF7
Assay: Antiproliferative activity against human MCF7 cells assessed as cell survival at 100 uM after 72 hrs under hypoxic condition by MTT assay
Assay type: functional
Calls of active or inactive are those of the source. The rule behind the calls is not given here.
measurement-kind: Activity

// solved cases for Activity follow
{"molecule": "CC(C(=O)Nc1ccc(S(N)(=O)=O)cc1)C(=O)c1ccc(Cl)cc1 (configuration not stated)", "measured-on": "MCF7", "measurement-kind": "Activity", "result": "Active"}
{"molecule": "CCOC(=O)C(Nc1ccc(S(N)(=O)=O)cc1)c1ccc(Cl)cc1 (configuration not stated)", "measured-on": "MCF7", "measurement-kind": "Activity", "result": "inactive"}
{"molecule": "CCOC(=O)C(C(=O)Nc1ccc(S(N)(=O)=O)cc1)C(C)C (configuration not stated)", "measured-on": "MCF7", "measurement-kind": "Activity", "result": "inactive"}
{"molecule": "CC(C)C(C(=O)Nc1cccc(S(N)(=O)=O)c1)C(=O)c1ccccc1 (configuration not stated)", "measured-on": "MCF7", "measurement-kind": "Activity", "result": "inactive"}

Request: Please look at this molecule and report its Activity: NS(=O)(=O)c1ccc(NC2CCN(c3cccc(C(F)(F)F)c3)C2=O)cc1 (configuration not stated)
Result: inactive

Request: Please look at this molecule and report its Activity: CCOC(=O)C(Nc1cccc(S(N)(=O)=O)c1)C(=O)c1ccccc1 (configuration not stated)
Result: inactive

Request: Please look at this molecule and report its Activity: "COc1ccc(C(=O)CNc2ccc(S(N)(=O)=O)cc2)cc1"
Result: Active

Request: Please look at this molecule and report its Activity: "NS(=O)(=O)c1ccc(NCC(=O)N2CCN(Cc3ccc(Cl)cc3)CC2)cc1"
Result: inactive

Request: Please look at this molecule and report its Activity: CCOC(=O)C(Nc1ccc(S(N)(=O)=O)cc1)c1ccc(OC)c(OC)c1 (configuration not stated)
Result: inactive
